Entries and their measured fold change (FC) follow.
# SUBJECT_OF_TEST: Beta-2 adrenergic receptor (Homo sapiens)
# Sequence (P07550 whole entry, looked up): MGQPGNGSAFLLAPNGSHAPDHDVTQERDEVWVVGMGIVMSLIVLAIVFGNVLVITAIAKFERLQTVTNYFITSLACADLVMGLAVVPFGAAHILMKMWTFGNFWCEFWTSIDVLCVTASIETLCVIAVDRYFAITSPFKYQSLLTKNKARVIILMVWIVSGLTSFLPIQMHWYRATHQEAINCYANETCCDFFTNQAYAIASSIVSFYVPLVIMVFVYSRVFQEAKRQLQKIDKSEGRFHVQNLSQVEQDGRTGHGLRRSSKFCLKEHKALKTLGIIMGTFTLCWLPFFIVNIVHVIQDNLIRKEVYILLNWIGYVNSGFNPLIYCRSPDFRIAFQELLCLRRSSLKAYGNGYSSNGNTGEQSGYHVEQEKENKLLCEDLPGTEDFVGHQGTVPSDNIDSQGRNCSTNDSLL
# TEST_DETAILS: Antagonist activity at human recombinant beta2 adrenoreceptor expressed in CHOK1 cells incubated for 30 mins by HTRF relative to parent compound
# Type: cell-based
Please give the numeric answer without any surrounding text.

{"columns": ["COMPOUND", "OBSERVATION_TYPE", "VALUE_REPORTED"],
 "data": [
  ["C=CCc1ccccc1OCC(O)CNCCOCCOCCOCCOCCNC(=O)CS(=O)(=O)O (stereo unspecified)", "fold change (FC)", 25.3]
]}

Q) Could you share which fold change (FC) value was measured for CC(C)NCC(O)COc1ccccc1CCCSCC(=O)NCCOCCOCCNC(=O)C1C(C(=O)O)C(C(=O)O)C1C(=O)O (stereo unspecified) ?
A) 5.27

Q) Could you share which fold change (FC) value was measured for CC(C)NCC(O)COc1ccccc1CCCSCC(=O)NCCOCCOCCN (stereo unspecified) ?
A) 0.26

Q) Could you share which fold change (FC) value was measured for C=CCc1ccccc1OCC(O)CNCCOCCOCCOCCOCCNC(=O)CCCCCC1(C)C(/C=C/C=C/C=C2/N(CCCS(=O)(=O)O)c3ccc(S(=O)(=O)O)cc3C2(C)C)=[N+](CCCS(=O)(=O)[O-])c2ccc(S(=O)(=O)O)cc21 (stereo unspecified) ?
A) 151

Q) Could you share which fold change (FC) value was measured for C=CCc1ccccc1OCC(O)CNCCOCCOCCOCCOCCNC(=O)OC(C)(C)C (stereo unspecified) ?
A) 2.09

Q) Could you share which fold change (FC) value was measured for CC(C)NCC(O)COc1ccccc1CCCSCC(=O)NCCOCCOCCNC(=O)CCCCCC1(C)C(/C=C/C=C/C=C2/N(CCCS(=O)(=O)O)c3ccc(S(=O)(=O)O)cc3C2(C)C)=[N+](CCCS(=O)(=O)[O-])c2ccc(S(=O)(=O)O)cc21 (stereo unspecified) ?
A) 1.33

Q) Could you share which fold change (FC) value was measured for COC(=O)CSCCCc1ccccc1OCC(O)CNC(C)C (stereo unspecified) ?
A) 1

Q) Could you share which fold change (FC) value was measured for C=CCc1ccccc1OCC(O)CNCCOCCOCCOCCOCCN (stereo unspecified) ?
A) 30.3

Q) Could you share which fold change (FC) value was measured for CC(C)NCC(O)COc1ccccc1CCCSCC(=O)NCCOCCOCCNC(=O)CS(=O)(=O)O (stereo unspecified) ?
A) 1.19

Q) Could you share which fold change (FC) value was measured for CC(C)NCC(O)COc1ccccc1CCCSCC(=O)NCCOCCOCCNC(=O)OC(C)(C)C (stereo unspecified) ?
A) 0.31

Q) Could you share which fold change (FC) value was measured for C=CCc1ccccc1OCC(O)CNCCOCCOCCOCCOCCNC(=O)C1C(C(=O)O)C(C(=O)O)C1C(=O)O (stereo unspecified) ?
A) 303
